experimental.target: recombinant rat α3β3γ2F77I receptors (Rattus norvegicus, UniProt P18508+P20236, F115I)
Sequence (P20236 29-493, one chain of several): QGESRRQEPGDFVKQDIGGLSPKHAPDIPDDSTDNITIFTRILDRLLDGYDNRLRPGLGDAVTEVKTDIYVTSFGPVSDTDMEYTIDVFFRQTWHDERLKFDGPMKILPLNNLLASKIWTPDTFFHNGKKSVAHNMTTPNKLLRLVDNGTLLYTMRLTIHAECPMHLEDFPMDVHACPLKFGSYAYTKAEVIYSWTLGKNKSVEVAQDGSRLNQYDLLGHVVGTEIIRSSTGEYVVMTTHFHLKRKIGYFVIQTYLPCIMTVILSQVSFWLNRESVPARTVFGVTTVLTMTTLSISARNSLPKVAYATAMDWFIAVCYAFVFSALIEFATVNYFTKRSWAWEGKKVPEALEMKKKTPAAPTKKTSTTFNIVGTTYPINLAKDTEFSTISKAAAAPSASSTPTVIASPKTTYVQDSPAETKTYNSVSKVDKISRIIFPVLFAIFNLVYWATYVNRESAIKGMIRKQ
Sequence (P18508 39-466 F115I, one chain of several): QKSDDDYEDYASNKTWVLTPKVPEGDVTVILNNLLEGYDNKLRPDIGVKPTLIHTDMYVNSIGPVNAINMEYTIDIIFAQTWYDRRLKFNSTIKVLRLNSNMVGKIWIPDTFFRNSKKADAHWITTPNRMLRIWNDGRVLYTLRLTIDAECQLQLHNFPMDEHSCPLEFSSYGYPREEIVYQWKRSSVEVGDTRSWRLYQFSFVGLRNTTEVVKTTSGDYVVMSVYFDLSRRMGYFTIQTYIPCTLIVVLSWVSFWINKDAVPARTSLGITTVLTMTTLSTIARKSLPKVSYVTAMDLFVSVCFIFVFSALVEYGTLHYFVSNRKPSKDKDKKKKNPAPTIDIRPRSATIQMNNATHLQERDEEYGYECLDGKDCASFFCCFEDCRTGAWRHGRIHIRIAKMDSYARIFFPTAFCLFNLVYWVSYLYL
test.method.notes: Two-electrode voltage clamp of GABA-induced chloride currents in Xenopus oocytes
Format: cell-based
test.context: 10 nM; α3β3γ2F77I; ns = not significant
measurement.name: efficacy (% GABA EC3)

Solved entries:
Q) Quick one: efficacy (% GABA EC3) for "COCc1c(C(=O)OC(C)C)ncc2[nH]c3ccc(OCc4ccccc4)cc3c12" ?
A) ns

Q) Same question, "CC(C)(C)OC(=O)c1ncn2c1[C@@H]1CCCN1C(=O)c1c(Br)cccc1-2" this time
A) ns

Q) Next: "CCc1c(C(=O)OC)ncc2[nH]c3cc(OC)c(OC)cc3c12"
A) ns

Q) Also CCOC(=O)c1ncn2c1C1CCCN1C(=O)c1cc(OC)ccc1-2 (centres unmarked) ?
A) ns

Next compound, please.
Q) For the compound shown here, "CCOC(=O)c1ncn2c1CN(C)C(=O)c1cc(F)ccc1-2" , give the reported efficacy (% GABA EC3).
A) ns

---

experimental.target: recombinant rat α2β3γ2 receptors (Rattus norvegicus, UniProt P18508+P23576)
Sequence (P23576 29-451, one chain of several): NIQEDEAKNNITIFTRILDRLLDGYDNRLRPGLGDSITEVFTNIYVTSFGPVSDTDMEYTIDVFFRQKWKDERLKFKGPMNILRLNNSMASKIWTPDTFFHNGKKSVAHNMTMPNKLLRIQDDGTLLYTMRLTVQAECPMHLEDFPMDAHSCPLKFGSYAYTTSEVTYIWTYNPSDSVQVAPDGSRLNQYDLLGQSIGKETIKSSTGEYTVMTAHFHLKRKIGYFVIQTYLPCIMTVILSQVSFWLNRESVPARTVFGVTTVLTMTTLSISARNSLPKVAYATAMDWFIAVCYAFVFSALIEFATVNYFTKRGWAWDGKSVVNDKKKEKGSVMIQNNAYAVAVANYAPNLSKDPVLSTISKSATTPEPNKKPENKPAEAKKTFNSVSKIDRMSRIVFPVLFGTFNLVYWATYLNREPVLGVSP
test.method.notes: Two-electrode voltage clamp of GABA-induced chloride currents in Xenopus oocytes
Assay type: cell-based
test.context: 10 nM; α2β3γ2; ns = not significant
measurement.name: efficacy (% GABA EC3)
Hi! Could you send only the number? It should be in % GABA EC3, unit omitted.

Worked cases, answers included:
Q) Please look up its efficacy (% GABA EC3): CCc1c(C(=O)OC)ncc2[nH]c3cc(OC)c(OC)cc3c12 [DMCM]
A) 71

Q) Again, but for CC(C)(C)OC(=O)c1ncn2c1[C@@H]1CCCN1C(=O)c1c(Br)cccc1-2 [Bretazenil]
A) 119

From here, focus on the item given below.
Q) Given the entry CCOC(=O)c1ncn2c1CN(C)C(=O)c1cc(F)ccc1-2 [Ro15–1788] , report its measured efficacy (% GABA EC3).
A) 121

---

experimental.target: recombinant rat α6β3γ2 receptors (Rattus norvegicus, UniProt P18508+P30191)
Sequence (P30191 20-453): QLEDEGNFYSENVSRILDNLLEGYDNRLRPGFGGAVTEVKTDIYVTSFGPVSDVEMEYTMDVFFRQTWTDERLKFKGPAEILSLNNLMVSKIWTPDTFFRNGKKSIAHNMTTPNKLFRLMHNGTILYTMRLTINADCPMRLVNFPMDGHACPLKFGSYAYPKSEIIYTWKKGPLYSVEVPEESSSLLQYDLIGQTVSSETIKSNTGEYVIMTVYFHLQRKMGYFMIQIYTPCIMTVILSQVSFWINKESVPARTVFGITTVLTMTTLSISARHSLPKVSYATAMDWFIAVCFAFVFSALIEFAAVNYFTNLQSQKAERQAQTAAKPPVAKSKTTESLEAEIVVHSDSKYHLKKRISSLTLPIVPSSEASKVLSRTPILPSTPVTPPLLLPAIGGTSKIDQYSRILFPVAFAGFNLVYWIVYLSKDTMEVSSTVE
Sequence (P63079 26-473 partner): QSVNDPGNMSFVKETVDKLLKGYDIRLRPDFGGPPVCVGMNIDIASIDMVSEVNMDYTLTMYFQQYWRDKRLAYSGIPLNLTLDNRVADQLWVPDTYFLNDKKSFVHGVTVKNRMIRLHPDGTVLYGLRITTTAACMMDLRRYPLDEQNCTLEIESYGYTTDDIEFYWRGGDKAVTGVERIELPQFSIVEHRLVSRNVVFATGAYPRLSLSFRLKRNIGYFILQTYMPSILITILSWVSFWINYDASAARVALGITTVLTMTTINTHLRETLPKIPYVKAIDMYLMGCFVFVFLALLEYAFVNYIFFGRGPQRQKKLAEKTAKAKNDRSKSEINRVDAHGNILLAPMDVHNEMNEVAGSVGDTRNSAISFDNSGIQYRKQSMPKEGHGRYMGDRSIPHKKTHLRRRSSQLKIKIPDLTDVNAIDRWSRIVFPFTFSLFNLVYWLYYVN
Sequence (P18508 39-466): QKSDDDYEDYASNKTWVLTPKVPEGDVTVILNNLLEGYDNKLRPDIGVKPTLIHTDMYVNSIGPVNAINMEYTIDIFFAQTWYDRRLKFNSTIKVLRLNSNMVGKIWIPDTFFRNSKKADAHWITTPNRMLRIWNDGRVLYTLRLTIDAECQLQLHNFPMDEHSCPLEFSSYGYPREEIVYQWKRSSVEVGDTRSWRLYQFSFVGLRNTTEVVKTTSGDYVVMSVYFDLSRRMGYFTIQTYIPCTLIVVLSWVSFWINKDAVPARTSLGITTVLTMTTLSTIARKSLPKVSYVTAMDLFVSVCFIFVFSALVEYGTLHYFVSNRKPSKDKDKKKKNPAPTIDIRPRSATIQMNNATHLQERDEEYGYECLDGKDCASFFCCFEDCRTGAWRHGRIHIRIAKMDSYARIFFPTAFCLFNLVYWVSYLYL
test.method.notes: Two-electrode voltage clamp of GABA-induced chloride currents in Xenopus oocytes
Format: cell-based
test.context: 1 μM; α6β3γ2; ns = not significant
measurement.name: efficacy (% GABA EC3)

Q) For the compound shown here, CC(C)(C)OC(=O)c1ncn2c1[C@@H]1CCCN1C(=O)c1c(Br)cccc1-2 [Bretazenil] , give the reported efficacy (% GABA EC3).
A) 202 ± 12 % GABA EC3

Q) Next: COCc1c(C(=O)OC(C)C)ncc2[nH]c3ccc(OCc4ccccc4)cc3c12 [Abecarnil]
A) ns

Q) Then what about the compound CCOC(=O)c1ncn2c1CN(C)C(=O)c1cc(F)ccc1-2 [Ro15–1788] ?
A) 166 ± 9 % GABA EC3

Q) # repeat for CN1C(=O)CN=C(c2ccccc2)c2cc(Cl)ccc21 [Diazepam]
A) ns

Q) Same for CN1CCN(C(=O)OC2c3nccnc3C(=O)N2c2ccc(Cl)cn2)CC1 (centres unmarked) [Zopiclone]
A) ns

Next:
Q) Reported efficacy (% GABA EC3), compound Cc1nnc2ccc(-c3cccc(C(F)(F)F)c3)nn12 [CL 218872] : ____
A) ns

Q) Another compound to check: CCc1c(C(=O)OC)ncc2[nH]c3cc(OC)c(OC)cc3c12 [DMCM]
A) 189 ± 21 % GABA EC3

Q) Can you handle CNC(=O)c1cc2c(cn1)[nH]c1ccccc12 [FG7142, N-methyl-β-carboline-3-carboxamide] next?
A) ns

---

experimental.target: recombinant rat α3β3γ2F77I receptors (Rattus norvegicus, UniProt P18508+P20236, F115I)
test.method.notes: Two-electrode voltage clamp of GABA-induced chloride currents in Xenopus oocytes
Assay type: cell-based
test.context: 100 nM; α3β3γ2F77I; ns = not significant
measurement.name: efficacy (% GABA EC3)

Consider the worked cases shown below.
Q) Recorded efficacy (% GABA EC3) of "CN1C(=O)CN=C(c2ccccc2)c2cc(Cl)ccc21" , please.
A) 166 ± 17 % GABA EC3

Q) Would you kindly repeat that for "CCc1c(C(=O)OC)ncc2[nH]c3cc(OC)c(OC)cc3c12" ?
A) ns

Q) Same lookup for CCOC(=O)c1ncn2c1C1CCCN1C(=O)c1cc(OC)ccc1-2 (stereo not shown) , please.
A) ns

Q) Also CNC(=O)c1cc2c(cn1)[nH]c1ccccc12 [FG7142, N-methyl-β-carboline-3-carboxamide] , if possible.
A) ns

Q) Try "CCOC(=O)c1ncn2c1CN(C)C(=O)c1cc(F)ccc1-2" next.
A) 106 ± 1 % GABA EC3

New cases:
Q) efficacy (% GABA EC3) for "COCc1c(C(=O)OC(C)C)ncc2[nH]c3ccc(OCc4ccccc4)cc3c12" ?
A) ns

Q) Let us now turn to CN1CCN(C(=O)OC2c3nccnc3C(=O)N2c2ccc(Cl)cn2)CC1 (stereo not shown)
A) ns

Q) # iterate: "CC(C)(C)OC(=O)c1ncn2c1[C@@H]1CCCN1C(=O)c1c(Br)cccc1-2"
A) 117 ± 3 % GABA EC3

Q) Try "Cc1nnc2ccc(-c3cccc(C(F)(F)F)c3)nn12" next.
A) ns

Q) How about this molecule: "Cc1ccc(-c2nc3ccc(C)cn3c2CC(=O)N(C)C)cc1"
A) ns

---

experimental.target: recombinant rat α5β3γ2F77I receptors (Rattus norvegicus, UniProt P18508+P19969, F115I)
Sequence (P19969 32-464 limits assumed): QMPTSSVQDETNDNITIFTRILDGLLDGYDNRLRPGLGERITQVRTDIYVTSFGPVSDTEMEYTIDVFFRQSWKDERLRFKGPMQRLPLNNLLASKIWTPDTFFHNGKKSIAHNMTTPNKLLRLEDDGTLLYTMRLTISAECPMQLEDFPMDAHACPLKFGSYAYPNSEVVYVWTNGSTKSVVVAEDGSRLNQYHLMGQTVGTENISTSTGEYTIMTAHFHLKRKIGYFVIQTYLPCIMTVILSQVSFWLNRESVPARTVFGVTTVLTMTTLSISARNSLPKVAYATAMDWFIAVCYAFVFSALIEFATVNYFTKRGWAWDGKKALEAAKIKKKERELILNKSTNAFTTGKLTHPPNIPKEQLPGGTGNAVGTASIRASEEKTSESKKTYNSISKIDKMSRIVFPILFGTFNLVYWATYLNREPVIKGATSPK
Sequence (P63079 26-473 partner): as the sequence (P63079 26-473 partner) above
Sequence (P18508 39-466 F115I): as the sequence (P18508 39-466) above, with F77I counted along it
test.method.notes: Two-electrode voltage clamp of GABA-induced chloride currents in Xenopus oocytes
Type: cell-based
test.context: 10 μM; α5β3γ2F77I; ns = not significant
Threshold check on efficacy (% GABA EC3): at or above 200 % GABA EC3 gives 1, strictly below gives -1.

Example entries and their recorded answers appear below.
Q) Can "CCc1c(C(=O)OC)ncc2[nH]c3cc(OC)c(OC)cc3c12" be said to have efficacy (% GABA EC3) at or above 200 % GABA EC3?
A) 1

Q) Then this compound: "Cc1nnc2ccc(-c3cccc(C(F)(F)F)c3)nn12"
A) -1

Q) For "CC(C)(C)OC(=O)c1ncn2c1[C@@H]1CCCN1C(=O)c1c(Br)cccc1-2" then?
A) 1

---
Q) Could you please find out whether CN1CCN(C(=O)OC2c3nccnc3C(=O)N2c2ccc(Cl)cn2)CC1 (stereo not shown) has efficacy (% GABA EC3) that meets 200 % GABA EC3 or exceeds it?
A) -1

Q) # repeat for "CN1C(=O)CN=C(c2ccccc2)c2cc(Cl)ccc21"
A) -1

---

experimental.target: recombinant rat α5β3γ2F77I receptors (Rattus norvegicus, UniProt P18508+P19969, F115I)
test.method.notes: Two-electrode voltage clamp of GABA-induced chloride currents in Xenopus oocytes
measurement.name: EC50

Q) Recorded EC50 of "CC(C)(C)OC(=O)c1ncn2c1[C@@H]1CCCN1C(=O)c1c(Br)cccc1-2" , please.
A) > 748 nM

---

experimental.target: recombinant rat α4β3γ2 receptors (Rattus norvegicus, UniProt P18508+P28471)
Sequence (P28471 36-552, one chain of several): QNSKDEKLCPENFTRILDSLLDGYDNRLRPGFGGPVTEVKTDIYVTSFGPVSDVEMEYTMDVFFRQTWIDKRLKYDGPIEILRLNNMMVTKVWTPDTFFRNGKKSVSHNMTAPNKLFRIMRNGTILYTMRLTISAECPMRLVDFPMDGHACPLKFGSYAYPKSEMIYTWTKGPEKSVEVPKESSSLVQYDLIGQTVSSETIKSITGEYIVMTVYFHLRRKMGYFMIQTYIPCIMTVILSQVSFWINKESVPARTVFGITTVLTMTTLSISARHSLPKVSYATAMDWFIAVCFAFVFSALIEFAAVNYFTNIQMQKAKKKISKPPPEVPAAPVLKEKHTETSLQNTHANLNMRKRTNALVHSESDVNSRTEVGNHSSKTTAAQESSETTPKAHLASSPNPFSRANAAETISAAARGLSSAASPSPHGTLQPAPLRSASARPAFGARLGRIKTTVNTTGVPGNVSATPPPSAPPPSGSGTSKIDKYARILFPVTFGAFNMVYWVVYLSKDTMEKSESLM
test.method.notes: Two-electrode voltage clamp of GABA-induced chloride currents in Xenopus oocytes
pEC50: −log10 of the molar value.
Each item that follows carries a reported pEC50.

Worked cases, pEC50 given:
Q) Requested field: pEC50. Item: CC(C)(C)OC(=O)c1ncn2c1[C@@H]1CCCN1C(=O)c1c(Br)cccc1-2 [Bretazenil]
A) < 6.45

Q) Input CCOC(=O)c1ncn2c1CN(C)C(=O)c1cc(F)ccc1-2 [Ro15–1788]
A) < 6.63

Please look at the following compound next.
Q) I'd like to know its pEC50. The compound in question is CCOC(=O)c1ncn2c1C1CCCN1C(=O)c1cc(OC)ccc1-2 [L-655,708]
A) 6.77

---

experimental.target: recombinant rat α4β3γ2F77I receptors (Rattus norvegicus, UniProt P18508+P28471, F115I)
Sequence (P28471 36-552, one chain of several): as the sequence (P28471 36-552, one chain of several) above
Sequence (P18508 39-466 F115I, one chain of several): as the sequence (P18508 39-466 F115I, one chain of several) above
test.method.notes: Two-electrode voltage clamp of GABA-induced chloride currents in Xenopus oocytes
Assay type: cell-based
test.context: 10 μM, ns = not significant
measurement.name: efficacy (% GABA EC3)

Q) Recorded efficacy (% GABA EC3) of "CC(C)(C)OC(=O)c1ncn2c1[C@@H]1CCCN1C(=O)c1c(Br)cccc1-2" , please.
A) ns

Q) Also "CCc1c(C(=O)OC)ncc2[nH]c3cc(OC)c(OC)cc3c12" , if possible.
A) 155 ± 9 % GABA EC3

Q) And for CCOC(=O)c1ncn2c1C1CCCN1C(=O)c1cc(OC)ccc1-2 (stereo not shown) ?
A) ns

Q) Follow-up item: "CCOC(=O)c1ncn2c1CN(C)C(=O)c1cc(F)ccc1-2"
A) ns

---

experimental.target: recombinant rat α6β3γ2 receptors (Rattus norvegicus, UniProt P18508+P30191)
test.method.notes: Two-electrode voltage clamp of GABA-induced chloride currents in Xenopus oocytes
// EC50 lookup, one value per entry

Q) Param readout= EC50; system= recombinant rat α6β3γ2 receptors (Rattus norvegicus, UniProt P18508+P30191); entry= CCOC(=O)c1ncn2c1C1CCCN1C(=O)c1cc(OC)ccc1-2 (centres unmarked) ; returns value.
A) > 0.47 µM

Now consider the entry below.
Q) Return EC50 measured with recombinant rat α6β3γ2 receptors (Rattus norvegicus, UniProt P18508+P30191) given this compound: "CC(C)(C)OC(=O)c1ncn2c1[C@@H]1CCCN1C(=O)c1c(Br)cccc1-2"
A) > 0.322 µM
